Tested on: Mycobacterium tuberculosis
Assay: Antimycobacterial activity against Mycobacterium tuberculosis MC2 6230 assessed as reduction in cell viability incubated for 5 days by resazurin based method
Type: functional
Conditions: MC2 6230, 120 h
Just a reminder that ties go to false: only MIC strictly below 100 µM counts as true.

{"columns": ["Sample Smiles", "Answer Label"],
 "data": [
  ["CCCNC1=C(Cl)C(=O)c2ccc(C)nc2C1=O", "false"],
  ["Cc1ccc2c(n1)C(=O)C(Nc1ccccc1)=C(Cl)C2=O", "false"],
  ["O=C1C(Cl)=C(Nc2ccccc2)C(=O)c2ncccc21", "false"]
]}

Exercise: Hello, I'm reviewing records and need to know if MIC of Cc1ccc2c(n1)C(=O)C(N(C)C)=C(Cl)C2=O is below 100 µM. Could you check?
Key: false

Exercise: Hello, I'm reviewing records and need to know if MIC of CCCNC1=C(Cl)C(=O)c2ncccc2C1=O is below 100 µM. Could you check?
Key: false

Exercise: Hello, I'm reviewing records and need to know if MIC of Cc1ccc2c(n1)C(=O)C(Cl)=C(NC(C)(C)C)C2=O is below 100 µM. Could you check?
Key: false

Exercise: Hello, I'm reviewing records and need to know if MIC of C#CCNC1=C(Cl)C(=O)c2cccnc2C1=O is below 100 µM. Could you check?
Key: false

Exercise: Hello, I'm reviewing records and need to know if MIC of Cc1ccc2c(n1)C(=O)C(Cl)=C(N1CCCCC1)C2=O is below 100 µM. Could you check?
Key: false

Exercise: Hello, I'm reviewing records and need to know if MIC of CCCCCCCCCCCCCCc1ccc(NC2=C(Cl)C(=O)c3ncccc3C2=O)cc1 is below 100 µM. Could you check?
Key: false

Exercise: Hello, I'm reviewing records and need to know if MIC of COc1ccc(CNC2=C(Cl)C(=O)c3ccc(C)nc3C2=O)cc1 is below 100 µM. Could you check?
Key: true

Exercise: Hello, I'm reviewing records and need to know if MIC of COc1ccc(CNC2=C(Cl)C(=O)c3ncccc3C2=O)cc1 is below 100 µM. Could you check?
Key: true
